- Tested on: normal primary NK cells, pool 2 (3 donors) (IL-2 2.5 ng/mL)
- experiment.notes: percent inhibition of viability; higher = more inhibition
- experimental.parameters: 72 h; 0.25 nM
readout: percent inhibition of viability (%)
Numeric answer only, unit % assumed.

O=C(NOCCO)c1ccc2cncn2c1Nc1ccc(I)cc1F [GDC-0623] (max concentration tested 2500 nM); 0.23
CC(C)Cn1cnc2c(N)nc3ccccc3c21 [Imiquimod] (max concentration tested 2500 nM); -8
COc1cc(Nc2ncc(F)c(Nc3ccc4c(n3)N(COP(=O)(O)O)C(=O)C(C)(C)O4)n2)cc(OC)c1OC [Fostamatinib] (max concentration tested 2500 nM); -8.88

Next compound, percent inhibition of viability to be filled in.
## Task Which percent inhibition of viability reading was recorded for the compound Cc1cc([C@@H](C)Nc2ccccc2C(=O)O)c2nc(N3CCOCC3)cc(=O)n2c1 [AZD-6482] (max concentration tested 2500 nM) ?
## Result -5.18

* * *

- System: normal primary NK cells, pool 1 (3 donors), resting (IL-2 0 ng/mL)
- experiment.notes: percent inhibition of viability; higher = more inhibition
- experimental.parameters: 72 h; 100 nM
Each item that follows carries a reported percent inhibition of viability.
I only need the number, in %, no unit after it.

C=CCn1c(=O)c2cnc(Nc3ccc(N4CCN(C)CC4)cc3)nc2n1-c1cccc(C(C)(C)O)n1 [MK1775] (max concentration tested 10000 nM); 7.91

Consider now this further compound.
## Task Need percent inhibition of viability of O=C(CCCCCCC(=O)Nc1ccccc1)NO [Vorinostat] (max concentration tested 10000 nM) , thanks.
## Result 10.4

* * *

percent inhibition of viability values, listed per item
- Tested on: SNK-6 (IL-2 2.5 ng/mL)
- experiment.notes: percent inhibition of viability; higher = more inhibition
- experimental.parameters: 72 h; 10000 nM
API: value field is a number in %; no unit string.

Illustrative cases are given below, each with its answer.
CO[C@H](C(=O)[C@@H](O)[C@@H](C)O)[C@@H]1Cc2cc3cc(O[C@H]4C[C@@H](O[C@@H]5C[C@@H](O)[C@H](O)[C@@H](C)O5)[C@H](O)[C@@H](C)O4)c(C)c(O)c3c(O)c2C(=O)[C@H]1O[C@H]1C[C@@H](O[C@@H]2C[C@@H](O)[C@@H](O[C@@H]3C[C@](C)(O)[C@H](O)[C@@H](C)O3)[C@@H](C)O2)[C@H](O)[C@@H](C)O1 [Plicamycin] (max concentration tested 10000 nM); 97.8
CC/C(=C(\c1ccc(O)cc1)c1ccc(OCCN(C)C)cc1)c1ccccc1 [4-hydroxytamoxifen] (max concentration tested 10000 nM); 93.9
N#CC1(c2ccc(NC(=O)c3cccnc3NCc3ccncc3)cc2)CCCC1 [Apatinib] (max concentration tested 10000 nM); 28.4
CCCCCCCCc1ccc(CCC(N)(CO)CO)cc1 [Fingolimod] (max concentration tested 10000 nM); 101
O=C(CCCCCCNC(=O)c1cnc(N(c2ccccc2)c2ccccc2)nc1)NO [Rocilinostat] (max concentration tested 10000 nM); 97.9

## Task Need percent inhibition of viability, item Cc1c(N)nc([C@H](CC(N)=O)NC[C@H](N)C(N)=O)nc1C(=O)N[C@H](C(=O)N[C@H](C)[C@@H](O)[C@H](C)C(=O)N[C@H](C(=O)NCCc1nc(-c2nc(C(=O)NCCC[S+](C)C)cs2)cs1)[C@@H](C)O)[C@@H](OC1OC(CO)C(O)C(O)C1OC1OC(CO)C(O)C(OC(N)=O)C1O)c1cnc[nH]1 (stereo partly specified) [Bleomycin] (max concentration tested 10000 nM)
## Result 101

## Task What percent inhibition of viability value was documented for this compound, CC[C@H](CC#N)OC(=O)N[C@@H](C)c1cccc(NC(=O)Nc2ccc(-c3cnco3)c(OC)c2)c1 [AVN944] (max concentration tested 10000 nM) ?
## Result 96.5

## Task What does the data say about its percent inhibition of viability? Entry: Cn1c(CCCC(=O)O)nc2cc(N(CCCl)CCCl)ccc21 [Bendamustine] (max concentration tested 10000 nM)
## Result 67

* * *

Listing of entries alongside the reported percent inhibition of viability.
- Tested on: NK-YS (IL-2 2.5 ng/mL)
- experiment.notes: percent inhibition of viability; higher = more inhibition
- experimental.parameters: 72 h; 100 nM
Give the value, in units of %, as a plain number.

## Task Find the recorded percent inhibition of viability belonging to Cc1c(N)nc([C@H](CC(N)=O)NC[C@H](N)C(N)=O)nc1C(=O)N[C@H](C(=O)N[C@H](C)[C@@H](O)[C@H](C)C(=O)N[C@H](C(=O)NCCc1nc(-c2nc(C(=O)NCCC[S+](C)C)cs2)cs1)[C@@H](C)O)[C@@H](OC1OC(CO)C(O)C(O)C1OC1OC(CO)C(O)C(OC(N)=O)C1O)c1cnc[nH]1 (stereo partly drawn) [Bleomycin] (max concentration tested 10000 nM) and report it.
## Result 6.84

## Task Find the recorded percent inhibition of viability belonging to Cn1ncnc1[C@H]1c2n[nH]c(=O)c3cc(F)cc(c23)N[C@@H]1c1ccc(F)cc1 [Talazoparib] (max concentration tested 1000 nM) and report it.
## Result 81.3

## Task Which measured percent inhibition of viability value corresponds to CCN(CC)CCOc1ccc(C(=C(Cl)c2ccccc2)c2ccccc2)cc1 [Clomifene] (max concentration tested 10000 nM) ?
## Result 4.95

* * *

Measured percent inhibition of viability values are reported for all entries that follow.
- Test system: DERL-7 (IL-2 2.5 ng/mL)
- experiment.notes: percent inhibition of viability; higher = more inhibition
- experimental.parameters: 72 h; 10 nM
Record the result as number plus unit.

## Task Requested read-out: percent inhibition of viability. Entry: CN(N=O)C(=O)N[C@@H](C=O)[C@@H](O)[C@H](O)[C@H](O)CO [Streptozocin] (max concentration tested 10000 nM)
## Result -4.39%

## Task I would be grateful if you could share the reported percent inhibition of viability for C=CCn1c(=O)c2cnc(Nc3ccc(N4CCN(C)CC4)cc3)nc2n1-c1cccc(C(C)(C)O)n1 [MK1775] (max concentration tested 10000 nM) .
## Result 0.03%

## Task Form field: reported percent inhibition of viability of NS(=O)(=O)OC[C@@H]1C[C@@H](n2ccc3c(N[C@H]4CCc5ccccc54)ncnc32)C[C@@H]1O [Pevonedistat] (max concentration tested 10000 nM)
## Result 2.36%

## Task Item CCCc1cc(C)[nH]c(=O)c1CNC(=O)c1cc(-c2ccnc(N3CCN(C)CC3)c2)cc2c1cnn2C(C)C [GSK343] (max concentration tested 10000 nM) has what recorded percent inhibition of viability?
## Result -4.82%

## Task Which measured percent inhibition of viability value corresponds to NC(=O)c1cccc(-c2cccc(OC(=O)NC3CCCCC3)c2)c1 [URB597] (max concentration tested 1000 nM) ?
## Result 12%

* * *

- Tested on: NKL (IL-2 2.5 ng/mL)
- experiment.notes: relative IC50 (inflection point of fitted viability curve, relative to fitted max inhibition); higher = less sensitive
- experimental.parameters: 72 h
readout: relative IC50

CCN(CC)CCOc1ccc(C(=C(Cl)c2ccccc2)c2ccccc2)cc1; 2280 nM
CC[C@]1(O)C[C@H]2CN(CCc3c([nH]c4ccccc34)[C@@](C(=O)OC)(c3cc4c(cc3OC)N(C=O)[C@H]3[C@@](O)(C(=O)OC)[C@H](OC(C)=O)[C@]5(CC)C=CCN6CC[C@]43[C@@H]65)C2)C1; 2.9 nM
CCC(C)(C)C(=O)O[C@H]1C[C@@H](C)C=C2C=C[C@H](C)[C@H](CC[C@@H]3C[C@@H](O)CC(=O)O3)[C@H]21; 2450 nM
Cc1csc(-c2nnc(Nc3ccc(Oc4ncccc4-c4ccnc(N)n4)cc3)c3ccccc23)c1; > 1000 nM
CC1(COc2ccc3c(c2)ncn3-c2ccc3cccc(N4CCC(N)CC4)c3n2)COC1; 633 nM

## Task Need relative IC50 of C=C(c1ccc(C(=O)O)cc1)c1cc2c(cc1C)C(C)(C)CCC2(C)C , thanks.
## Result 208 nM

## Task # relative IC50 lookup, item CS(=O)(=O)N1CCN(Cc2cc3nc(-c4cccc5[nH]ncc45)nc(N4CCOCC4)c3s2)CC1
## Result 821 nM

* * *

- System: KHYG-1 (IL-2 2.5 ng/mL)
- experiment.notes: percent inhibition of viability; higher = more inhibition
- experimental.parameters: 72 h; 10000 nM
readout: percent inhibition of viability (%)
Form entry: value (%) — number only.

These recorded examples may help you get a feel for the data.
CN(N=O)C(=O)N[C@@H](C=O)[C@@H](O)[C@H](O)[C@H](O)CO [Streptozocin] (max concentration tested 10000 nM); 4.73
Cc1ccc(-n2nc(C(C)(C)C)cc2NC(=O)Nc2ccc(OCCN3CCOCC3)c3ccccc23)cc1 [Doramapimod] (max concentration tested 10000 nM); 56.5
CNC(=O)c1ccccc1Sc1ccc2c(/C=C/c3ccccn3)n[nH]c2c1 [Axitinib] (max concentration tested 10000 nM); 93.1
CN[C@@H](C)C(=O)N[C@H]1CN(C(=O)CC(C)C)CC[C@H]2CC[C@@H](C(=O)NC(c3ccccc3)c3ccccc3)N2C1=O [AT-406] (max concentration tested 10000 nM); 91.8
CCC(C)(C)C(=O)O[C@H]1C[C@@H](C)C=C2C=C[C@H](C)[C@H](CC[C@@H]3C[C@@H](O)CC(=O)O3)[C@H]21 [Simvastatin] (max concentration tested 10000 nM); 11.2
Nc1nc(Nc2ccc3c(c2)CC[C@@H](N2CCCC2)CC3)nn1-c1cc2c(nn1)-c1ccccc1CCC2 [BGB324] (max concentration tested 10000 nM); 103
CO[C@@H](C(=O)N1Cc2[nH]nc(NC(=O)c3ccc(N4CCN(C)CC4)cc3)c2C1)c1ccccc1 [Danusertib] (max concentration tested 10000 nM); 86.5
CNC(=O)c1ccc2cc([C@@]3(O)CCn4cncc43)ccc2c1 [Orteronel] (max concentration tested 10000 nM); -8.03

## Task Give its percent inhibition of viability value. Item: CCCc1cc(C)[nH]c(=O)c1CNC(=O)c1cc(-c2ccnc(N3CCN(C)CC3)c2)cc2c1cnn2C(C)C [GSK343] (max concentration tested 10000 nM)
## Result 99.8

## Task Would you mind telling me what percent inhibition of viability value was observed for CN(C)CCN1C(=O)c2cccc3cc(N)cc(c23)C1=O [Amonafide] (max concentration tested 10000 nM) ?
## Result 103

## Task I am curious: what percent inhibition of viability value has been reported for CC(C)c1c(C(=O)Nc2ccccc2)c(-c2ccccc2)c(-c2ccc(F)cc2)n1CC[C@@H](O)C[C@@H](O)CC(=O)O [Atorvastatin] (max concentration tested 10000 nM) ?
## Result 81.3
